protocolDescription: qHTS assay to identify small molecule agonists of the estrogen related receptor (ERR) signaling pathway (AID 1224820)
conditionContext: ERR reporter cell line, luciferase agonist mode; series mostly up to 46.1 µM
Results filed as inconclusive are left out. Activity calls are given as the source filed them. Calls follow the shape of the dose curve; as a rule, active = well fitted activation curve with a large enough effect in the repeat runs; inconclusive = weak or mixed curves; inactive = no such curve, though single readings can be large or run the other way.
Reply using exactly one outcome from active, inactive

>  <compound>
NCCS(=O)O

>  <className>
inactive

$$$$

# input for lookup
Query string: I'd appreciate the recorded outcome for "CN1CCc2cc(Cl)c(O)cc2[C@@H](c2ccccc2)C1" from this test.
Result string: inactive

###

protocolDescription: qHTS RealTime-Glo MT Cell Viability Assay in HEK293 cells - 8 hour (AID 1224887); also: nearly all actives have a fitted effect of over 50% in size
conditionContext: RealTime-Glo luminescence; series mostly up to 76.8 µM
Text: U.S. Tox21 Program National Center for Advancing Translational Sciences [NCATS] NIH Chemical Genomics Center [NCGC] U.S. Environmental Protection Agency [EPA] National Institutes of Environmental Health Sciences [NIEHS] National Toxicology Program [NTP] U.S. Food and Drug Administration [FDA] Tox21 Assay Overview: Measure of cell viability is critical in the cell-base assay. Analysis of cell viability is necessary for the characterization of cell responses to cytotoxic drugs and environmental stress. […]
Results filed as inconclusive are left out. The source made the active and inactive calls. The call rests on the fitted dose curve; in most records, active means well fitted cell-killing curve with a large enough effect in the repeat runs; inconclusive means weak or mixed curves, or effect the other way; inactive means flat fitted curve, though single readings scatter.
Reply using exactly one outcome from 1 = active, 0 = inactive

Use these answered entries as a reference point.
>  <compound>
CCC(C)(C)c1ccc(CC(C)CN2C[C@@H](C)O[C@@H](C)C2)cc1 (stereo not given in full)

>  <className>
0

$$$$
>  <compound>
CCCCCc1ccc(O)cc1

>  <className>
1

$$$$
>  <compound>
CC(O)(c1ccc(Cl)cc1)c1ccc(Cl)cc1

>  <className>
1

$$$$

Query string: I'd appreciate the recorded outcome for "CN1CCN(C)CC1" from this test.
Result string: 0

Query string: I'd appreciate the recorded outcome for CCc1cccc(C)c1N(C(=O)CS(=O)(=O)O)C(C)COC (stereo not given) from this test.
Result string: 0

###

system: Estrogen receptor (Homo sapiens)
protocolDescription: qHTS assay to identify small molecule agonists of the estrogen receptor alpha (ER-alpha) signaling pathway using the BG1 cell line (AID 743079); also: nearly all actives have a fitted effect of over 20% in size
conditionContext: BG1Luc4E2 cells, ERE-luciferase agonist, 22 h; series mostly up to 70.3 µM
Records with an inconclusive call do not appear. Calls of active or inactive are those of the source. Calls come from the whole dose curve; as a rule, active = well fitted activation curve with a large enough effect in the repeat runs; inconclusive = weak or mixed curves, or effect the other way; inactive = no such curve, though single readings can be large or run the other way.
Reply using exactly one outcome from T (active), F (inactive)

Use these answered entries as a reference point.
>  <molecule>
CCCCCCCCCC(=O)NO

>  <system>
Estrogen receptor (Homo sapiens)

>  <className>
F

$$$$
>  <molecule>
COc1ccc(/C=N/NC(=O)c2ccncc2)c(C(=O)O)c1OC

>  <system>
Estrogen receptor (Homo sapiens)

>  <className>
F

$$$$
>  <molecule>
CO[C@H]1C[C@H](O[C@H]2[C@H](C)[C@@H](O[C@@H]3O[C@H](C)C[C@H](N(C)C)[C@H]3O)[C@@H](C)C[C@]3(CO3)C(=O)[C@H](C)[C@@H](O)[C@@H](C)[C@@H](C)OC(=O)[C@@H]2C)O[C@@H](C)[C@@H]1O

>  <system>
Estrogen receptor (Homo sapiens)

>  <className>
F

$$$$
>  <molecule>
OCCCNc1ccccc1

>  <system>
Estrogen receptor (Homo sapiens)

>  <className>
F

$$$$
>  <molecule>
NCCCC[C@H](NC(=O)[C@@H]1CCCN1C(=O)[C@@H]1CSSC[C@H](N)C(=O)N[C@@H](Cc2ccc(O)cc2)C(=O)N[C@@H](Cc2ccccc2)C(=O)N[C@@H](CCC(N)=O)C(=O)N[C@@H](CC(N)=O)C(=O)N1)C(=O)NCC(N)=O

>  <system>
Estrogen receptor (Homo sapiens)

>  <className>
F

$$$$
>  <molecule>
CCC[C@@H]1C[C@@H](C(=O)N[C@@H]([C@H]2O[C@H](SC)[C@H](OP(=O)(O)O)[C@@H](O)[C@H]2O)[C@H](C)Cl)N(C)C1

>  <system>
Estrogen receptor (Homo sapiens)

>  <className>
F

$$$$

Query string: I'd appreciate the recorded outcome for "CC(=O)O[C@H]1C[C@@H]2CC[C@@H]3[C@H](CC[C@@]4(C)[C@H]3C[C@H]([N+]3(C)CCCCC3)[C@@H]4OC(C)=O)[C@@]2(C)C[C@@H]1[N+]1(C)CCCCC1" from this test.
Result string: F

Query string: I'd appreciate the recorded outcome for "CCSCC" from this test.
Result string: F

Query string: I'd appreciate the recorded outcome for "O=C(O)COc1ccc(C(=O)c2cccs2)c(Cl)c1Cl" from this test.
Result string: F

Query string: I'd appreciate the recorded outcome for "NC(=O)[C@@H]1CCCN1C(=O)[C@H](Cc1cnc[nH]1)NC(=O)[C@@H]1CCC(=O)N1" from this test.
Result string: F

Query string: I'd appreciate the recorded outcome for "O=C(O)C[C@H](O)C[C@H](O)/C=C/c1c(C2CC2)nc2ccccc2c1-c1ccc(F)cc1" from this test.
Result string: F

Query string: I'd appreciate the recorded outcome for "CC(C)(O/N=C(\C(=O)N[C@@H]1C(=O)N2C(C(=O)[O-])=C(C[n+]3ccccc3)CS[C@H]12)c1csc(N)n1)C(=O)O" from this test.
Result string: F

Query string: I'd appreciate the recorded outcome for "CC(C)(C)c1ccc2c(S(=O)(=O)O)c(C(C)(C)C)ccc2c1" from this test.
Result string: F

Query string: I'd appreciate the recorded outcome for "CCCCC[C@H](O)/C=C/[C@@H]1[C@@H](C/C=C\CCCC(=O)O)[C@@H](O)C[C@H]1O" from this test.
Result string: T

Query string: I'd appreciate the recorded outcome for "Cc1ccc2nc(-c3ccc(N)cc3)sc2c1S(=O)(=O)O" from this test.
Result string: T

Query string: I'd appreciate the recorded outcome for "NC(=O)C1c2ccccc2CCc2ccccc21" from this test.
Result string: F

Query string: I'd appreciate the recorded outcome for "COc1c(O)cc2c(c1O)[C@@H]1O[C@H](CO)[C@@H](O)[C@H](O)[C@H]1OC2=O" from this test.
Result string: F
